Numbers sourced from the supplement of paper PMC12592484.

Can you tell me drug sensitivity score for the items I'm about to list?
Tested on: CAF#3 (primary prostate cancer-associated fibroblasts of myCAF-like type)
ASSAY_TEXT: drug sensitivity score (DSS2, normalised partial AUC of dose-response, 72 h CellTiter-Glo viability) (DSS (dimensionless)); higher = more sensitive (stronger growth inhibition / cytotoxicity); extreme values may be limits of the assay
Give bare numbers.

// below: answered molecules
>>> experimental_value("Cc1ccccc1CN1C(=O)C2=C(CCN(Cc3ccccc3)C2)N2CCN=C12 [ONC201] (tested concentration range 2.5-25000 nM)")
2.3
>>> experimental_value("OC[C@H]1O[C@@H](n2cnc3c2N=CNC[C@H]3O)C[C@@H]1O [Pentostatin] (tested concentration range 1-10000 nM)")
0

Now look at this one.
Exercise: Please report drug sensitivity score for the following molecule: O=C(Nc1cccc(Nc2ncc(Br)c(NCCc3cnc[nH]3)n2)c1)N1CCCC1 [BX-912] (tested concentration range 1-10000 nM)
Solution: 7.6

* * *

Tested on: CAF#5 (primary prostate cancer-associated fibroblasts of myCAF-like type)
ASSAY_TEXT: drug sensitivity score (DSS2, normalised partial AUC of dose-response, 72 h CellTiter-Glo viability) (DSS (dimensionless)); higher = more sensitive (stronger growth inhibition / cytotoxicity); extreme values may be limits of the assay
1 means recorded drug sensitivity score is 3 or above; -1 means it is below 3.

Study these solved cases before continuing.
>>> category("O=C(c1cc(Cc2n[nH]c(=O)c3ccccc23)ccc1F)N1CCN(C(=O)C2CC2)CC1 [Olaparib] (tested concentration range 1-10000 nM)")
1
>>> category("CC[C@H](NC(=O)[C@H](C)NC)C(=O)N1C[C@@H](O)C[C@H]1Cc1c(-c2[nH]c3cc(F)ccc3c2C[C@@H]2C[C@H](O)CN2C(=O)[C@H](CC)NC(=O)[C@H](C)NC)[nH]c2cc(F)ccc12 [Birinapant] (tested concentration range 0.1-1000 nM)")
-1
>>> category("O=C(Nc1cccc(NC(=O)c2cccc(O)c2O)c1)c1cccc(O)c1O [MST-312] (tested concentration range 1-10000 nM)")
1
>>> category("Cc1ccc(=O)n(-c2ccccc2)c1 [Pirfenidone] (tested concentration range 1-10000 nM)")
-1
>>> category("COCCNCc1ccc(-c2cc3nccc(Oc4ccc(NC(=O)C5(C(=O)Nc6ccc(F)cc6)CC5)cc4F)c3s2)nc1 [Sitravatinib] (tested concentration range 0.2-2500 nM)")
1
>>> category("CN(C)C(=N)NC(=N)N [Metformin] (tested concentration range 10-100000 nM)")
-1

Exercise: Determine whether this compound has drug sensitivity score no lower than 3: O=c1sn(-c2cccc3ccccc23)c(=O)n1Cc1ccccc1 [Tideglusib] (tested concentration range 0.3-3000 nM)
Solution: -1

Exercise: Threshold query (drug sensitivity score >= 3) on CN(C)Cc1ccc(S(=O)(=O)n2ccc(/C=C/C(=O)NO)c2)cc1 [Resminostat] (tested concentration range 1-10000 nM)
Solution: 1

Exercise: drug sensitivity score >= 3 for N#CC[C@H](C1CCCC1)n1cc(-c2ncnc3[nH]ccc23)cn1 [Ruxolitinib] (tested concentration range 1-10000 nM) ?
Solution: -1

Exercise: Form field: drug sensitivity score at least 3? Entry: NS(=O)(=O)OC[C@@H]1C[C@@H](n2ccc3c(N[C@H]4CCc5ccccc54)ncnc32)C[C@@H]1O [Pevonedistat] (tested concentration range 1-10000 nM)
Solution: 1

* * *

Test system: CAF#2 (primary prostate cancer-associated fibroblasts of iCAF-like type)
ASSAY_TEXT: drug sensitivity score (DSS2, normalised partial AUC of dose-response, 72 h CellTiter-Glo viability) (DSS (dimensionless)); higher = more sensitive (stronger growth inhibition / cytotoxicity); extreme values may be limits of the assay
Please respond with reported drug sensitivity score for every item in the list.
Answers are plain numbers.

Known results for molecules:
>>> experimental_value("O[C@H]1CC[C@H](Nc2ncc3nc(Nc4c(F)cc(F)cc4F)n([C@H]4CCOC4)c3n2)CC1 [Tanzisertib] (tested concentration range 1-10000 nM)")
0
>>> experimental_value("CC(C)Oc1ccc(C(=O)N[C@H](CNC(=O)CN(C)C)Cc2ccc(-c3cn4cccc([C@H](C)O)c4n3)cc2)cc1Cl (tested concentration range 1-10000 nM)")
9.8
>>> experimental_value("CC[C@H](Nc1ncnc2[nH]cnc12)c1nc2cccc(F)c2c(=O)n1-c1ccccc1 [Idelalisib] (tested concentration range 1-10000 nM)")
4.5
>>> experimental_value("Oc1ccc2c(c1)CC[C@H](c1ccccc1)[C@@H]2c1ccc(OCCN2CCCC2)cc1 [Lasofoxifene] (tested concentration range 0.1-1000 nM)")
0

State recorded drug sensitivity score for all listed molecules.
1. CNc1ncc2cc(-c3cc(NC(=O)NCCC(C)(C)C)c(F)cc3C)c(C)nc2n1 (tested concentration range 1-10000 nM)
2. COc1cc2/c(=N/c3ccc(Br)cc3F)nc[nH]c2cc1OCC1CCN(C)CC1 [Vandetanib] (tested concentration range 0.1-1000 nM)

Solution:
1. 11
2. 6.4

* * *

Tested on: CAF#2
ASSAY_TEXT: drug sensitivity score (DSS2, normalised partial AUC of dose-response, 72 h CellTiter-Glo viability) (DSS (dimensionless)); higher = more sensitive (stronger growth inhibition / cytotoxicity); extreme values may be limits of the assay
OBSERVED_PROPERTY: drug sensitivity score
Numbers only.

// worked examples, drug sensitivity score included
>>> experimental_value("CNC(=O)[C@@H](NC(=O)[C@H](CC(C)C)[C@H](O)C(=O)NO)C(C)(C)C [Marimastat] (tested concentration range 1-10000 nM)")
0
>>> experimental_value("Cc1c(F)cc(C(=O)NC2CC2)cc1-c1ccc(C(=O)NCC(C)(C)C)cn1 [Losmapimod] (tested concentration range 1-10000 nM)")
0
>>> experimental_value("COc1ccc(Cn2ccc3ccc(C(=O)NO)cc32)cc1 (tested concentration range 1-10000 nM)")
3.1
>>> experimental_value("Cc1ccc(C(=O)N(CCCN)[C@@H](c2oc3cc(Cl)ccc3c(=O)c2Cc2ccccc2)C(C)C)cc1 (tested concentration range 0-100 nM)")
7.1
>>> experimental_value("CN(C)Cc1ccc(S(=O)(=O)n2ccc(/C=C/C(=O)NO)c2)cc1 [Resminostat] (tested concentration range 1-10000 nM)")
5.9

Exercise: // fetch drug sensitivity score given entry CC[C@H](C)C(=O)O[C@H]1C[C@H](O)C=C2C=C[C@H](C)[C@H](CC[C@@H](O)C[C@@H](O)CC(=O)O)[C@H]21 [Pravastatin] (tested concentration range 1-10000 nM)
Solution: 0.3

* * *

Tested on: CAF#2
ASSAY_TEXT: drug sensitivity score (DSS2, normalised partial AUC of dose-response, 72 h CellTiter-Glo viability) (DSS (dimensionless)); higher = more sensitive (stronger growth inhibition / cytotoxicity); extreme values may be limits of the assay
Note that class boundaries on drug sensitivity score are low = under 1, mid = from 1 up to 5, high = 5 and over

# count of solved cases: 4
>>> category("CCCCNc1ncc(C(=O)NCc2ccc(-n3ccnc3)cc2)c(NC2CCC(O)CC2)n1 (configuration not stated) [UNC2881] (tested concentration range 0.2-2500 nM)")
"low"
>>> category("O=C1CCc2c(Oc3ccc4c(c3)[C@@H]3[C@H](O4)[C@H]3c3nc4cc(C(F)(F)F)ccc4[nH]3)ccnc2N1 [Lifirafenib] (tested concentration range 1-10000 nM)")
"mid"
>>> category("Cc1cn(-c2cc(NC(=O)c3ccc(C)c(Nc4nccc(-c5cnccn5)n4)c3)cc(C(F)(F)F)c2)cn1 [Radotinib] (tested concentration range 1-10000 nM)")
"low"
>>> category("C=CC(=O)N1CC/C(=C\\c2ccc(F)c([N+](=O)[O-])c2)C(=O)/C(=C/c2ccc(F)c([N+](=O)[O-])c2)C1 [VLX1570] (tested concentration range 1-10000 nM)")
"high"

Exercise: Returns: class label. Input: CCN1CCN(c2ccc(Nc3cc(N(C)C(=O)Nc4c(Cl)c(OC)cc(OC)c4Cl)ncn3)cc2)CC1 [Infigratinib] (tested concentration range 0.1-1000 nM)
Solution: low

Exercise: Which class does Nc1ccccc1NC(=O)c1ccc(CNc2nccc(-c3cccnc3)n2)cc1 [Mocetinostat] (tested concentration range 1-10000 nM) fall in?
Solution: high

Exercise: Where would Nc1nc(F)nc2c1ncn2[C@@H]1O[C@H](CO)[C@@H](O)[C@@H]1O [Fludarabine] (tested concentration range 1-10000 nM) land among the classes by reported drug sensitivity score?
Solution: low

Exercise: Dear colleague, I would appreciate it if you could identify the bin for CN1CCN(c2ccc(C(=O)Nc3n[nH]c4ccc(Cc5cc(F)cc(F)c5)cc34)c(NC3CCOCC3)c2)CC1 [Entrectinib] (tested concentration range 0.1-1000 nM) and reply at your convenience.
Solution: mid

Exercise: Please classify: C[C@]1(O)C[C@@H](c2nc(-c3ccc4ccc(-c5ccccc5)nc4c3)c3c(N)nccn32)C1 [Linsitinib] (tested concentration range 1-10000 nM)
Solution: mid

Exercise: Each compound maps to one class by drug sensitivity score. Which class for CC(C)c1cc(-c2n[nH]c(=O)n2-c2ccc3c(ccn3C)c2)c(O)cc1O [Ganetespib] (tested concentration range 0.1-1000 nM) ?
Solution: high

Exercise: Which bin should I file CC(O)(CS(=O)(=O)c1ccc(F)cc1)C(=O)Nc1ccc(C#N)c(C(F)(F)F)c1 (configuration not stated) [Bicalutamide] (tested concentration range 1-10000 nM) under?
Solution: mid

Exercise: Looking at O=C(Nc1cccc(Nc2ncc(Br)c(NCCc3cnc[nH]3)n2)c1)N1CCCC1 [BX-912] (tested concentration range 1-10000 nM) , which class would you pick?
Solution: high

Exercise: Band of Nc1nc(Cl)nc2c1ncn2[C@H]1C[C@H](O)[C@@H](CO)O1 [Cladribine] (tested concentration range 0.1-1000 nM) ?
Solution: mid

Exercise: Hi, small favor: classify COc1cc(NS(C)(=O)=O)ccc1Nc1c2ccccc2nc2ccccc12 [Amsacrine] (tested concentration range 1-10000 nM) by its drug sensitivity score when you get a moment.
Solution: high

Exercise: Hi, small favor: classify OC[C@H]1O[C@@H](n2cnc3c2N=CNC[C@H]3O)C[C@@H]1O [Pentostatin] (tested concentration range 1-10000 nM) by its drug sensitivity score when you get a moment.
Solution: low

Exercise: Lab log: NC1(C(=O)N[C@@H](CCO)c2ccc(Cl)cc2)CCN(c2nc[nH]c3nccc2-3)CC1 [Capivasertib] (tested concentration range 1-10000 nM) — assign drug sensitivity score category
Solution: mid

Exercise: Which class holds CC(C)NC[C@@H](C(=O)N1CCN(c2ncnc3c2[C@H](C)C[C@H]3O)CC1)c1ccc(Cl)cc1 [Ipatasertib] (tested concentration range 1-10000 nM) ?
Solution: mid

Exercise: Please report the category associated with CC[C@@H](C(=O)[C@@H](C)[C@@H](O)[C@H](C)[C@@H]1O[C@@H]([C@@H](CC)C(=O)O)CC[C@@H]1C)[C@H]1O[C@]2(C=C[C@@H](O)[C@]3(CC[C@@](C)([C@H]4CC[C@](O)(CC)[C@H](C)O4)O3)O2)[C@H](C)C[C@@H]1C [Salinomycin] (tested concentration range 5-50000 nM) , nothing else.
Solution: high

Exercise: Assign a bin to O=C(Nc1cnn2ccc(N3CCC[C@@H]3c3cc(F)ccc3F)nc12)N1CC[C@H](O)C1 [Larotrectinib] (tested concentration range 0.1-1000 nM)
Solution: low

Exercise: Looking at Cc1cc(OCc2nnc(SC3CCCC3)n2-c2cccnc2)ccc1-c1ccc(S(C)(=O)=O)cc1 [NMS-873] (tested concentration range 1-10000 nM) , which class would you pick?
Solution: high

Exercise: Class? Entry: CCOC(=O)C1=CCCC[C@H]1S(=O)(=O)Nc1ccc(F)cc1Cl [Resatorvid] (tested concentration range 1-10000 nM)
Solution: low
